- Test system: MCF7 breast
- PROCEDURE_TEXT: NCI-60 one-dose screen, 48 h (100 = growth as untreated, 0 = no growth, -100 = all killed)
- MEASUREMENT_PARAMETERS: 10 µM unless noted
Compounds without any hit were thinned out: in the full panel of roughly 83,000, 20% have a hit.
METRIC_NAME: growth (%)
// note: answer is a bare numeric in %

In the examples that follow, each entry is paired with its recorded growth.
INSERT INTO measurements (compound_structure_string, tested_on, metric_name, numeric_result) VALUES
  ('COc1ccc(NS(=O)(=O)c2ccc(-c3cnc(C4CC4)o3)cc2)cc1Cl', 'MCF7 breast', 'growth', 17.4),
  ('Cc1nn(-c2ccccc2)c2nc(CCl)[nH]c(=O)c12', 'MCF7 breast', 'growth', 16.4),
  ('CN(C)c1ccc(/C=N/Nc2nc(N/N=C/c3ccc(N(C)C)cc3)nc(N3CCOCC3)n2)cc1', 'MCF7 breast', 'growth', 54.8),
  ('COc1ccc(C(=O)n2cc(C=O)c3ccccc32)cc1', 'MCF7 breast', 'growth', 82.1),
  ('CCNC(=O)Oc1ccc(/C(=C(/C)c2ccccc2)c2ccc(OCCN3CCCC3)cc2)cc1', 'MCF7 breast', 'growth', 26.9),
  ('Nc1ccc(-c2nnc(SCc3ccc(O)c4ncccc34)n2-c2ccccc2)cc1', 'MCF7 breast', 'growth', 5.58);

Query block: Need growth of CN(C)c1ncc(/C=C2\SC(=S)N(Cc3ccccc3Cl)C2=O)s1 , thanks.
Result block: 92.1

Query block: Find the recorded growth belonging to COc1ccc2c(c1)oc1c3[nH]c4ccccc4c3c3c(c21)C(=O)N(O)C3=O and report it.
Result block: 15.7

Query block: Requested field: growth. Item: C=C(C)[C@@H]1CC[C@]2(C)[C@H](CC=C3[C@@H]4CC(C)(C)CC[C@]4(C(=O)NCC#CCN4CCN(C)CC4)CC[C@]32C)[C@@]1(C)CCC#N
Result block: 27
